details: 298.15 K; 101 kPa; Liquid; Linear variable-path acoustic interferometer
Assay readout: speed of sound (m/s)
One number for each entry, in m/s.

Molecule: CCCCCC [hexane]
Quantity unit: m/s
speed of sound: 1078.5
--
Molecule: CCCCCCCCCC [decane]
Quantity unit: m/s
speed of sound: 1235.4
--
Molecule: CC(C)CO [2-methyl-1-propanol]
Quantity unit: m/s
speed of sound: 1191.3

Please examine the following record next.
The reported value for CCCCCCCC [octane] in terms of speed of sound is 1170.9

Data provenance: the NIST ThermoML archive (doi:10.1021/je060389r)
